# Measurement description: soluble fraction after stress (log2 fold change); higher = more stays soluble; pooled small domains, quantitative proteomics
# Test settings: stress: 50 degC
The class of a record is decided solely by its measured soluble fraction (log2); consult lower band: < -0.5; central band: ≥ -0.5 and < -0.2; upper band: ≥ -0.2

Input: Form: Item = HMKFPIITAKQDSDGKFYWAQTTDKGKTYTFILDGDGKKFPIGGTMPDVKINENGYWSVNGSSTGVLANDL ; Class = ?
Output: upper band

Input: Category of HMIVIMKAKAEEEDVNRVIDTIQSLGLRTQLNLGAERMVVAVIGDISKIGEDNFFRIRAMKGVENTVFVSK :
Output: central band

Input: Hi, small favor: classify HMDNMTEMQKAVTALIEKSGGSIDNLSVIYDHLKKKYPSFDLKDYGYSRFSSFLRSMENIMVRGNAVTLRS by its soluble fraction (log2) when you get a moment.
Output: upper band

Input: Hello team, could you let me know which band the following sequence falls into: HMVNEALDEFFVGLKNLYESATGKPAIAGAHFDGEPKTDFEKLMYLGYQIIRPAQAYPSALKAYERAIARS
Output: upper band

Input: Which class does HMTFKDIMENYTISRIENTINSAVVFLDEINAYITIDKTQLPSNLRYDTDSKIMASQIPDDAKIKYFMIYW fall in?
Output: lower band

Input: Returns: class label. Input: HMIESVMVGIKELLGDTIDQKYEKYIRLGGIPSDEVDEFNSVFSAYEKVNGNHNGKKKYDYVMNNLPIIPV
Output: central band

Input: Exercise: read the entry HMADTFVMPDLVYRRYEPVRGYFERGGFHMGAVKFEPYEGISDGTILRQNPLPGHPLRRRDVISLVVAAS and state which class it falls under.
Output: lower band

Input: State the band of HMQQKNWIVRDGDGKIYGPFTTEQVLVQIDRGYFVGGEEVALYPGGRWIAISGAPEFYDRLLDALAMEG
Output: central band

Input: Sort into band: HMENYQIETFVKFIEESTGEDGVAFEDLFQNFTSRPAVITMFLALLEALRRNSIRIFQKEEFSQILIYPK
Output: upper band

Input: Category of HMGSKKAIPYVSGMSETEAQNELEEAGFKVTSSFQYDDSVESGKVISTTPEAGTKAEKGSTVTMLVSQGSN , please.
Output: upper band

Input: Quick check: band for HMRIEYYDDEELDRYIGTPASGYREAAVEEFREILLTLDADDVPGWVRSLQLRGIEFPESLRPELYL
Output: lower band

Input: Quick check: band for HMGEGIRIDSTAVVQVGEKMYAYLGGDGFSKEFWTNLPASGELAVTLKFEPIPMDAESLDFYEMPA
Output: upper band

Input: # bin lookup: classify HMPTTNIRAFRLREADPESVKEALSMVMPKTSIYVDARTKSVLVVGLLDELARAAEIVALIDQP by its soluble fraction (log2)
Output: lower band

Input: Which of the defined bands does the recorded soluble fraction (log2) of HMLHQSLVVNAASGRVTVSLDIVPDEDNPYAVLRATDDSDEPLAQVRVAPSFKLNRASALAWIESQFARP sit within?
Output: lower band

###

For each record, write down the corresponding soluble fraction (log2).
# Measurement description: soluble fraction after stress (log2 fold change); higher = more stays soluble; pooled small domains, quantitative proteomics
# Test settings: stress: 50 degC
Please reply with the number alone, leaving off any unit.

Input: # lookup: soluble fraction (log2) of HMALSGTVQNFAGGIMILIFRPFKTGDYIEALGYFGKVSEVNIVSTKLRTFDNKTIILPNGALSNGNIQNY
Output: -0.889

Input: Recorded soluble fraction (log2) of HMVDDNFGLGEVTDQNYLTVLGRALDLIGWTDEQADSYSLKTFGVPHWDELGRSQAEKLVAHLIGLLKEQM , please.
Output: -0.33

Input: Would you kindly share the measured soluble fraction (log2) for HMQIIETTVGRVLFNEKVPEAAGYINEVLTKKSLRDIIHGILKKTSVPETAAFLDEIKSLGYNFAF ?
Output: -0.066

Input: Which soluble fraction (log2) value is on record for HMKPQIRRHEKITALVREHGFMSVEQLARELEVTPQTIRRDIGILSAENVLRRYHGGAALGD ?
Output: -0.586

Input: Please look up its soluble fraction (log2): HMQETMTNDEVISLTKAGLSSSIIIGKIRSSATNFDLSTDSLIKLKQAGVSDETVAAMLEAKS
Output: 0.0855

Input: Requested read-out: soluble fraction (log2). Entry: HMTEKQYIYSIGDRVNIGTDEFEIVNINEKEVSIADVTFPMLVKQISYEEFDRKVKENPFNDHLII
Output: 0.0642

Input: Fill blank: measured soluble fraction (log2) of the sequence HMETPSNTAGITHATSDGYIFKGESDIIGRNSFGFIVKHGSHNHIIPFDSLRGTKWEYLINKYT is ____.
Output: 0.21

Input: Record request: soluble fraction (log2) value, item HMLIIMNSDATKEQVDHVTSRVREAGFKDHIMPGAGKVAIGVTGTGDYDQTKLHLEILPGVFKIMRITK
Output: 0.0895

Input: Which soluble fraction (log2) value is on record for HMAGTKRAENIEIQKLTEVLEARLDSVGFFWPDHKAESMIMTLRNMISRLPLTEADVRVFHGIIKSLADK ?
Output: -0.527

Input: Consider the sequence shown here: HMAAMDMFVKLDALDAELTEQLKALPAEPDDARVERGLALLTDYDHRIKALLTEIFGGENDFDKVL What is its recorded soluble fraction (log2)?
Output: -2.4

Input: What does the data say about its soluble fraction (log2)? Entry: HMEKKEWVIYITGAVKKPGVYRIPEGARVYQALEAAGGFTPEADRDAVNLAAMLQDGAHIKFPAVGEEV
Output: 0.117

Input: Requested read-out: soluble fraction (log2). Entry: HMARAPIYPDGLTQREVEVLSLVAAGKTDREIAEELFIALRTVTTHVGNILNKIGAANRTEAAGYATRQGL
Output: -0.459

Input: # get_value(readout='soluble fraction (log2)', item= HMKHTQTDEGELLSTLRTLFPNSSSSSLRKMLTQGRILVNQEVVHRAKHALQAGDEIEVLARQ )
Output: -0.122

Input: Tell me the measured soluble fraction (log2) of HMGLNELQVKLNEAMQRLSLKHRTVVVMHDIEGIPHDEIAKIVGVSVGTIRSRLFYARRQLQADLGEY , please.
Output: -2.57

Input: Query (sequence): HMSGTFIGGELVKPGEPLTPMQRAAITMGLQMGNTYSPEIMEKYNNAGGSPSKEEFENYQKNKS ; field requested: soluble fraction (log2)
Output: 0.101

Input: I'd like to know its soluble fraction (log2). The sequence in question is HMSKPIREVAYETLKNAIVTGEIPAGSRIVETEYAERMHISRTPLREALRKLERDGLVEYVVRRGVVVRAF
Output: -1.54

Input: Item under review: HMNNPLLDKVYQLMKQNNITEEEIVRAVAMKGYFPDDMKLGDYPDDFIDGVLIGAWDQIKQFIINNISPFK . Reported soluble fraction (log2)?
Output: 0.0631

Input: Quick one: soluble fraction (log2) for HMDIKDRSGVTIDESNEAQQESIIRESWAEQKISGNVDNYIAYLKANGMLLETAKIELAALQEKDASLRE ?
Output: 0.0421

Input: Fill blank: measured soluble fraction (log2) of the sequence HMSREVTVPPLSGLTLRDAARTLAERGLLMEAEGQGAVHRQDPPAGTRVPTGTPVRVFLTLPEQNS is ____.
Output: 0.333

Input: Need soluble fraction (log2) of HMQPADYSDLYAAAKSAGEADMRAAFALTDKQERTAAVNAARETIKAALSEEQLADANLGSALKKLEAGV , thanks.
Output: -0.337

Input: Requested field: soluble fraction (log2). Item: HMRPHDDHLREQLLGIATETIARTGVEGLSLRTLATDAGTSTSAVYQLFGSRAALLDAVYLRVLE
Output: -1.26

Input: Using the record for HMDDGARQLVDQLNRLIANPAVSARIIHGYLILEGRVESEWEKTRTLLLAQVAGLPVIDLITVS , report its soluble fraction (log2).
Output: -1.85

Input: Name the recorded soluble fraction (log2) for HMSEEQLKAFLEKVQGDTSLQEKLKAAADANAVVEIAKEAGFSISADDLKNAQSELSEEELE .
Output: -0.0697

Input: Item under review: HMDTLESYVKRLEKLEGIADSFKGVSKAFALQAGREIRIMVESEKITDEEAVWLSKDIARRIENELEYPG . Reported soluble fraction (log2)?
Output: -0.378

Input: // query soluble fraction (log2) value for entry HMSELIDSLTEAVRSAPDAVPLRLHLAELLLADGQRDRAFAQLGQVLAKDPQNARALEMLGVGS
Output: -0.0386

Input: Which soluble fraction (log2) value is on record for HMKGVENLSDIDIQKALNNARANLSKNKAKLEQAGDDEKKKASALAMIQKWETTKKAIEEEIEARKKKSLN ?
Output: -0.296

Input: Which soluble fraction (log2) is listed for HMENRILLSEDSLKHLAQDIPIDIIEKLSVLKDQIYHRYDDFNSIVQGLLGGENYLKYKDNILSFVEQ ?
Output: 0.0624

Input: Any idea what its soluble fraction (log2) is? The sequence is HMASENISYSQFINQVKNSMVESVSIEADGKTISGKYKSGSSFVTYGLNDPKLVDDLLSNNVEIL
Output: 0.159

Input: I have this sequence here, HMTAMQYVTIKDIADALGISKSSVSRALAGDVHNVSAQTIERVRAKALEMGYLRNNAAVNLR , and I need its recorded soluble fraction (log2).
Output: -0.0718

Input: Please give the measured soluble fraction (log2) for this sequence: HMTYTGTVTGVDEGGLRVRSSTSTENTSNVITKVYTGDTFDVLDTVYNGSAKWYKIGFTYNGTYTYGYVSA
Output: -1.17

Input: If you can, please state the reported soluble fraction (log2) value of HMLKEDSAYELGLRIFDQALNDYGTSFIDLKEDEYKKVLSIYGYSNPRQLIINIGLGNVIPHLLARDITE .
Output: -1.23

Input: I'd like to know its soluble fraction (log2). The sequence in question is HMRININNASARQIADALPGVGLKTARDIKDFQTTLSGERYTRLDQLHSIKRVDWDEIFKADLVRV
Output: -0.0293

Input: Which measured soluble fraction (log2) value corresponds to HMPLSDAEKAAAIATQAKERALKLSPEMISYLLRHASRDMRTLSMLVVALDQYTLEQKRPVTLPLLRELLS ?
Output: -0.098
